Entries annotated with measured Activity
- Test system: E3 ubiquitin-protein ligase RNF149/Epidermal growth factor receptor (Homo sapiens), P00533+Q8NC42 [UNDEFINED MUTATION]
- Sequence (P00533 whole entry, looked up, change not shown): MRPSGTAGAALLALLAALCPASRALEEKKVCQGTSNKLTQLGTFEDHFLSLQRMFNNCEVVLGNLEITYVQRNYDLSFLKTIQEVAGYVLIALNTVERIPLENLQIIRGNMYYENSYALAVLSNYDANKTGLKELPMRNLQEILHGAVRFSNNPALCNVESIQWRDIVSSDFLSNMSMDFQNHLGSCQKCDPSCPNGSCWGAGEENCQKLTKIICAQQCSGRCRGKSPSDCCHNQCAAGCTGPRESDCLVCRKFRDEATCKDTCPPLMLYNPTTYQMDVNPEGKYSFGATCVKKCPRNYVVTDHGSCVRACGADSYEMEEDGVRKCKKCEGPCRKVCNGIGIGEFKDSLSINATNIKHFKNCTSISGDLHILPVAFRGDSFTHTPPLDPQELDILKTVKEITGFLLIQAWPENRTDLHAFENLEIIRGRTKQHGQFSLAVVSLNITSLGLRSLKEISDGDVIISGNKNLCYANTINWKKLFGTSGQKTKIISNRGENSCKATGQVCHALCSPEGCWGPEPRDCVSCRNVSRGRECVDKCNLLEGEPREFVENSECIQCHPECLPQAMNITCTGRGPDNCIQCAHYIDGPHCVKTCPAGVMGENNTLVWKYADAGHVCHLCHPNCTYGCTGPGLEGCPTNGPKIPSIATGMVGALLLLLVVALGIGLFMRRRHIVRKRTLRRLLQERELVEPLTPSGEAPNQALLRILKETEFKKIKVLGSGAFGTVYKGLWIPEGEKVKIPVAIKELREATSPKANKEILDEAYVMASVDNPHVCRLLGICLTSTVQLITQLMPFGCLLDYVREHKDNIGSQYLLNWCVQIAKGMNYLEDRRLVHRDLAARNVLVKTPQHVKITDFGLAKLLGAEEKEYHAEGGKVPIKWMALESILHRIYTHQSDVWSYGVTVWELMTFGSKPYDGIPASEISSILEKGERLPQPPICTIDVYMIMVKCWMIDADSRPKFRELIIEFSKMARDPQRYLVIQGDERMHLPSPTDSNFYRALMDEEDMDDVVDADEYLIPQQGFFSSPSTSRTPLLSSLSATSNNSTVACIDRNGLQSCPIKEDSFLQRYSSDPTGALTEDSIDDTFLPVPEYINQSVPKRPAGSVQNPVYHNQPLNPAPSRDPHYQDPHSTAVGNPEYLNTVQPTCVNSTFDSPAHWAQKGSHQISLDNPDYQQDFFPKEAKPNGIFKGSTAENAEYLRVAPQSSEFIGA
- Sequence (Q8NC42 whole entry, looked up, change not shown): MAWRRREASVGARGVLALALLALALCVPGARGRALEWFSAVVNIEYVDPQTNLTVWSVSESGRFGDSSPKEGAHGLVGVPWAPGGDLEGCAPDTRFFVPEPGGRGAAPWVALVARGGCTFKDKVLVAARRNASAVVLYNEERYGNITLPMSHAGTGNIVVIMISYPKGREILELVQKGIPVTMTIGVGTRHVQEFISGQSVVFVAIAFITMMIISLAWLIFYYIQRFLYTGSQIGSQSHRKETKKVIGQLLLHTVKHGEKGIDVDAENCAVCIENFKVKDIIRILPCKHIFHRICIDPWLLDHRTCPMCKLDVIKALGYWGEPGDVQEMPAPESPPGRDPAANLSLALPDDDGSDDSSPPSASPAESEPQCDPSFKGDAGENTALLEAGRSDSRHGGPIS
- assay_notes: SiHyT-mediated degrader activity at RNF149/EGFR mutant in human HCC827 cells assessed as induction of EGFR degradation at 1 uM cells incubated in serum-free media for 8 hrs followed by incubation with compound for 24 hrs by western blot analysis
- Assay type: cell-based
Reply numerically in %, unit not repeated.

// known answers, use as guide
smiles_record	Activity, %
COc1cc2ncnc(Nc3ccc(F)c(Cl)c3)c2cc1OCCn1cc(CCCO[Si](C)(C)C(C)(C)C)nn1	22.4
CC[Si](CC)(CC)OCCCc1cn(CCOc2cc3c(Nc4ccc(F)c(Cl)c4)ncnc3cc2OC)nn1	79.1
COc1cc2ncnc(Nc3ccc(F)c(Cl)c3)c2cc1OCCn1cc(CCO[Si](C)(C)C2CCCCC2)nn1	47

// below: Activity requested for another molecule
Requested read-out: Activity. Entry: `COc1cc2ncnc(Nc3ccc(F)c(Cl)c3)c2cc1OCCn1cc(CCCCO[Si](c2ccccc2)(c2ccccc2)C(C)(C)C)nn1`
58.4

###

Entries annotated with measured Activity
- Test system: E3 ubiquitin-protein ligase RNF149/Epidermal growth factor receptor (Homo sapiens), P00533+Q8NC42 [UNDEFINED MUTATION]
- assay_notes: SiHyT-mediated degrader activity at RNF149/EGFR mutant in human HCC827 cells assessed as induction of EGFR degradation at 1 uM cells incubated in serum-free media for 8 hrs followed by incubation with compound for 24 hrs by western blot analysis
- Format: cell-based
Answer with the value and then the unit.

smiles_record	Activity
COc1cc2ncnc(Nc3ccc(F)c(Cl)c3)c2cc1OCCn1cc(CCCO[Si](c2ccccc2)(c2ccccc2)C(C)(C)C)nn1	87.2%
COc1cc2ncnc(Nc3ccc(F)c(Cl)c3)c2cc1OCCCCCCCCO[Si](c1ccccc1)(c1ccccc1)C(C)(C)C	0%
COc1cc2ncnc(Nc3ccc(F)c(Cl)c3)c2cc1OCCCN1CCN(CCCO[Si](c2ccccc2)(c2ccccc2)C(C)(C)C)CC1	0%
COc1cc2ncnc(Nc3ccc(F)c(Cl)c3)c2cc1OCCCN1CCN(CCO[Si](c2ccccc2)(c2ccccc2)C(C)(C)C)CC1	16.8%
COc1cc2ncnc(Nc3ccc(F)c(Cl)c3)c2cc1OCCCN1CCN(CCn2cc(CCCCO[Si](C)(C)C3CCCCC3)nn2)CC1	18.4%

Requested read-out: Activity. Entry: `COc1cc2ncnc(Nc3ccc(F)c(Cl)c3)c2cc1OCCn1cc(CCCO[Si](C(C)C)(C(C)C)C(C)C)nn1`
18.2%

Next entry: `COc1cc2ncnc(Nc3ccc(F)c(Cl)c3)c2cc1OCCn1cc(CCCCO[Si](C)(C)C2CCCCC2)nn1`
53.2%

###

- Test system: E3 ubiquitin-protein ligase RNF149/Epidermal growth factor receptor (Homo sapiens), P00533+Q8NC42 [UNDEFINED MUTATION]
- assay_notes: SiHyT-mediated degrader activity at RNF149/EGFR mutant in human HCC827 cels assessed as induction of EGFR degradation at 0.1 uM cells incubated in serum-free media for 8 hrs followed by incubation with compound for 24 hrs by western blot analysis
- Format: cell-based
quantity_measured: Activity (%)
Reply numerically in %, unit not repeated.

// known answers, use as guide
smiles_record	quantity_measured	unit_spec	val
COc1cc2ncnc(Nc3ccc(F)c(Cl)c3)c2cc1OCCCN1CCN(CCn2cc(CCO[Si](c3ccccc3)(c3ccccc3)C(C)(C)C)nn2)CC1	Activity	%	0
COc1cc2ncnc(Nc3ccc(F)c(Cl)c3)c2cc1OCCCN1CCN(CCn2cc(CCCCO[Si](C)(C)C3CCCCC3)nn2)CC1	Activity	%	0
COc1cc2ncnc(Nc3ccc(F)c(Cl)c3)c2cc1OCCn1cc(CCCO[Si](C(C)C)(C(C)C)C(C)C)nn1	Activity	%	4.2

Requested read-out: Activity. Entry: `COc1cc2ncnc(Nc3ccc(F)c(Cl)c3)c2cc1OCCCN1CCN(CCCO[Si](c2ccccc2)(c2ccccc2)C(C)(C)C)CC1`
0

Next entry: `COc1cc2ncnc(Nc3ccc(F)c(Cl)c3)c2cc1OCCn1cc(CCCCO[Si](C)(C)C2CCCCC2)nn1`
46.1

Next entry: `COc1cc2ncnc(Nc3ccc(F)c(Cl)c3)c2cc1OCCCN1CCN(CCn2cc(CCCO[Si](C)(C)C3CCCCC3)nn2)CC1`
0

Next entry: `COc1cc2ncnc(Nc3ccc(F)c(Cl)c3)c2cc1OCCOCCOCCO[Si](c1ccccc1)(c1ccccc1)C(C)(C)C`
0
